# Recorded Conditions: in acetone, 283.15 K
Readout Name: solubility (mole fraction)
Answer with a number only.

Supply measured solubility (mole fraction) of CC(C)Oc1ccc2c(=O)c(-c3ccccc3)coc2c1 in your reply.
0.0102

###

# Recorded Conditions: in methyl acetate, 313.15 K
Readout Name: solubility (mole fraction)
Answer with a number only.

Supply measured solubility (mole fraction) of CC(C)Oc1ccc2c(=O)c(-c3ccccc3)coc2c1 in your reply.
0.039

###

# Recorded Conditions: in toluene, 308.15 K
Readout Name: solubility (mole fraction)
Answer with a number only.

Supply measured solubility (mole fraction) of CC(C)Oc1ccc2c(=O)c(-c3ccccc3)coc2c1 in your reply.
0.0417
